Origin of values: ChEMBL document CHEMBL1134410

target: Beta-2 adrenergic receptor (Rattus norvegicus, UniProt P10608); assay: Agonistic activity towards beta-2 adrenoceptor. Mean concentration required to produce 50% inhibition of uterine contraction
Sequence (P10608 whole entry): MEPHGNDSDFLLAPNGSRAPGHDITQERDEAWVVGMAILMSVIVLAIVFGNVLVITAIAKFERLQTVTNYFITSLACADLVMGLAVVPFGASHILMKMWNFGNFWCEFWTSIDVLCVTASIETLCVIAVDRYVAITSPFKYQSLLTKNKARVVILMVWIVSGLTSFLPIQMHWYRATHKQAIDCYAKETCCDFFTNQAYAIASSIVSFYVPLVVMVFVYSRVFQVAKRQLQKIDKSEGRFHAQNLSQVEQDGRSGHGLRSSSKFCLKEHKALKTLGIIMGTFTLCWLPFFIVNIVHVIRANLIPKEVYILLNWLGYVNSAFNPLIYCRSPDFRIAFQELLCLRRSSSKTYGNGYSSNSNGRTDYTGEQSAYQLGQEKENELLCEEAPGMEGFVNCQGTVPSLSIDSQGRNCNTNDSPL
Assignment: determine reported IC50 for the given molecules.
Numeric answer only, unit µM assumed.

## Input Sample C[C@H](NCCc1ccc(NC(C)(C)C(=O)O)cc1)[C@H](O)c1ccc(O)cc1 — what was its IC50?
## Output 11

## Input # repeat for C[C@H](NCCc1ccc(NCC(=O)O)c(Cl)c1Cl)[C@H](O)c1ccc(O)cc1
## Output 1.7

## Input # repeat for C[C@H](NCCc1ccc(NCC(=O)O)c(I)c1)[C@H](O)c1ccc(O)cc1
## Output 2.19

## Input # repeat for C[C@H](NCCc1cc(Cl)c(NCC(=O)O)c(Cl)c1)[C@H](O)c1ccc(O)cc1
## Output 14.1

## Input # repeat for C[C@H](NCCc1cc(Br)c(NCC(=O)O)c(Br)c1)[C@H](O)c1ccc(O)cc1
## Output 2.57
